Molecular target: T1, UNK ZnF1-3 (human, UniProt Q9C0B0 31-174)
T1 sequence: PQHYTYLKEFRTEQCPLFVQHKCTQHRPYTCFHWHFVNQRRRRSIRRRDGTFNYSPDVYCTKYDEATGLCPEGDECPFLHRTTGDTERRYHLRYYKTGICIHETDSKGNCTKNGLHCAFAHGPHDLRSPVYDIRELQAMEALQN
Test: nsRBNS (natural sequence RNA bind-n-seq); RBNS binding buffer (assumed for nsRBNS): 25 mM Tris pH 7.5, 150 mM KCl, 3 mM MgCl2, 0.01% Triton X-100, 500 ug/ml BSA, 20 U/ml SUPERase-In, 4 C; UNK is unkempt and MSI1 is Musashi-1; names of the RNAs are library labels; protein concentration not given here; high values mean tight binding
Whole data set: some 24,000 sequences, median “enrichment r” near 0.99, cut for the highest 2% near 3.7. The sample as a whole holds a higher share of the highest values than the screen did.
Reported values of binding signal for individual entries
PARAMETER: binding signal (enrichment R)

1. chr4:56294251:56294252:-_ENSG00000134852_ENST00000309964|hu_hu|motif|central (ssRNA) RNA: GGGAGUUCUACAGUCCGACGAUCAACAUAGCACUGAGGUAUUUUUUAUUUUUAAAAUUGAAGGAAACAAAGUCUGGAUCGGAUUAUUUUUACAUUUACAAAAACUGCUACUGCUUGGCUCUUUUGCUAUAAGUUUAGGUUCUGCAACAGAGGAUUGAGCAUCA    3.76
2. chr1:34870196:34870197:-_ENSMUSG00000037503_ENSMUST00000047534|mus_mus|FALSE|FALSE (ssRNA) RNA: GGGAGUUCUACAGUCCGACGAUCUGAGCCCAUCUACUCAUCAGAUUGCAUAAAAAAUUAAAACAGUAUGAAUUUACAUCUAAUUGAACUGGCUUGGGAUGGACAGUCUGCCCGUUCCUUUGUUUUGACACAUAAGUUCCAUGACAACAGAGGAUUGAGCAUCA    1.33
